So I've got a bunch of compounds here, and I need their cell viability values.
# Test system: ML-2
# Measurement Protocol: cell viability (% survival relative to DMSO control, bortezomib = 0%); higher = less cytotoxic
# Condition Label: 1000 nM; 72 h
Give bare numbers, in %.

CN(CCCOc1ccc(Cc2ccccc2)cc1)CCC(=O)O
113

Please report cell viability for every entry that follows.
1. Cc1c(Cl)cccc1S(=O)(=O)Nc1nc(CC(=O)N2CCN(C)CC2)cs1
2. O=c1cc(N2CCOCC2)oc2c(-c3ccccc3)cccc12

Reply:
[108, 89.4]

----------
# System: LAMA-84
# Measurement Protocol: cell viability (% survival relative to DMSO control, bortezomib = 0%); higher = less cytotoxic
# Condition Label: 1 nM; 72 h
For each entry below, report its cell viability value.
One number for each entry, in %.

O=C(Nc1ccccc1)c1cc([N+](=O)[O-])ccc1Cl
98.7
COc1ccc2c(NC(=O)Nc3cccc(C(F)(F)F)n3)ccnc2c1
102
Cc1cccc(Nc2cc(Cl)nc(SCC(=O)O)n2)c1C
100

Report cell viability for every entry below.
1. Cc1ccc(-c2cc(C(F)(F)F)nn2-c2ccc(S(N)(=O)=O)cc2)cc1
2. CC/C=C\C[C@H]1C(=O)CC[C@@H]1CC(=O)OC [Methyl jasmonate]
3. O=C(O)CC[N+](=O)[O-]
4. C=CC(=O)c1ccc(O)cc1
5. COC(=O)c1cc2c(C(F)(F)F)cc(-c3ccccc3)cc2n1O

Reply:
1: 98.6; 2: 95.6; 3: 104; 4: 86.7; 5: 91.9

----------
# Tested on: KCL-22
# Measurement Protocol: cell viability (% survival relative to DMSO control, bortezomib = 0%); higher = less cytotoxic
# Condition Label: 100 nM; 72 h
Exercise: for every item that follows, state its recorded cell viability.
Param answer (str): number followed by unit.

O=C(/C=C/c1ccc(O)c(O)c1)OCCc1ccccc1
93.3%
CCCCCCCC/C=C\CCCCCCCC(=O)Nc1ccccc1 [Octadec-9-Enoic Acid Phenylamide]
99.5%
O=C1C(SCCO)=C(SCCO)C(=O)c2ccccc21
89.9%

Hi there! I need cell viability for each item below, if you can.
1. Cc1cc(C(=O)NNCc2ccccc2)no1
2. O=C([O-])CC(O)(C(=O)[O-])C(O)C(=O)[O-].[K+].[K+].[K+] (stereo unspecified) [Hydroxycitrate]
3. CC/C=C\C[C@H]1C(=O)CC[C@@H]1CC(=O)OC [Methyl jasmonate]

Reply:
94.3%
104%
96.9%

----------
# System: myeloid leukemia patient primary cells Pat.3
# Measurement Protocol: cell viability (% survival relative to DMSO control); higher = less cytotoxic
# Condition Label: 1 nM; 72 h
Experimental Readout: cell viability (%)
Answers are plain numbers, in %.

The cases that follow already have their cell viability on record.
C=CCN(C)CCCCCCOc1ccc(C(=O)c2ccc(Br)cc2)c(F)c1.O=C(O)/C=C/C(=O)O [Ro 48-8071 fumarate]
55
Cn1cc(-c2ccncc2)c(-c2ccc(OCc3ccc4ccccc4n3)cc2)n1
91.6
Cc1[nH]nc(C(F)(F)F)c1Cc1sc2c(c1C(=O)N1C[C@](C)(O)CO1)c(=O)n(C)c(=O)n2C(C)C [AZD3965]
86.2
CC(C)(C)c1ccc(S(=O)(=O)NCc2ccc(C(=O)Nc3cccnc3)cc2)cc1 [STF-31]
90.6

The molecule listed as Cc1cc2c(C(C)C)c(O)c(O)c(C=O)c2c(O)c1-c1c(C)cc2c(C(C)C)c(O)c(O)c(C=O)c2c1O [Gossypol] has a reported cell viability of 96.5
